Reported values of selectivity ratio at 0.5 h for individual entries
Assay: Protective index, ratio of TD50 for neurotoxicity against ip dosed Kunming mouse assessed as time remained in rod measured at 0.5 hrs by rotarod test to ED50 for anticonvulsant activity in ip dosed Kunming mouse assessed as reduction in Sc3-MP-induced seizure administered 0.5 hrs before Sc3-MP stimulation
Assay type: toxicity, organism-based
Conditions: in vivo, read-out: PI
The answer should be a number; do not append a unit.

{"compound structure": "COc1cc(OC)c(OC)cc1/C=C/COC(=O)/C=C/c1c(OC)c(OC)cc(OC)c1OC", "selectivity ratio at 0.5 h": 5}
{"compound structure": "COc1cc(OC)c(OC)cc1/C=C/COC(=O)/C=C/c1c(OC)ccc(OC)c1OC", "selectivity ratio at 0.5 h": 3.3}

Consider the compound COc1ccc(/C=C/C(=O)OC/C=C/c2cc(OC)c(OC)cc2OC)cc1 and give its measured selectivity ratio at 0.5 h.
3.3

Consider the compound COc1cc(OC)c(OC)cc1/C=C/COC(=O)/C=C/c1ccc(F)cc1 and give its measured selectivity ratio at 0.5 h.
5

Consider the compound COc1cc(OC)c(OC)cc1/C=C/COC(=O)/C=C/c1ccc(Br)cc1 and give its measured selectivity ratio at 0.5 h.
5

Consider the compound COc1cc(OC)c(OC)cc1/C=C/COC(=O)/C=C/c1cc(OC)c(OC)cc1OC and give its measured selectivity ratio at 0.5 h.
3.3

Consider the compound COc1ccccc1/C=C/C(=O)OC/C=C/c1cc(OC)c(OC)cc1OC and give its measured selectivity ratio at 0.5 h.
3.3

Consider the compound COc1cc(OC)c(/C=C/C(=O)OC/C=C/c2cc(OC)c(OC)cc2OC)c(OC)c1 and give its measured selectivity ratio at 0.5 h.
3.3
